target: KDR receptor (Homo sapiens, UniProt P35968); test: KDR receptor binding ELISA (inhibition of biotinylated native VEGF (8–109) binding); settings: second figure of the cell, variant midpoint concentration divided by that of native VEGF
Sequence (P35968 20-327 limits assumed): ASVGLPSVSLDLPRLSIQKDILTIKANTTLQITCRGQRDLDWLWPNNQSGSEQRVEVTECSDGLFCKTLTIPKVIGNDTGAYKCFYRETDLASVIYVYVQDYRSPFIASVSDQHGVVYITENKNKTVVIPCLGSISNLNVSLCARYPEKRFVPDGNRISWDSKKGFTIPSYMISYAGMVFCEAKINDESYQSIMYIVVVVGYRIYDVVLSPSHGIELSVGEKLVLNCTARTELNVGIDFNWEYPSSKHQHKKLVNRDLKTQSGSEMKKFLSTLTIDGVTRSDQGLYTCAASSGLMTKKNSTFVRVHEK
measuredAttribute: Relative Binding Affinity, KDR Receptor: ratio to native VEGF (8–109)

Tell me Relative Binding Affinity, KDR Receptor: ratio to native VEGF (8–109) reported for LK-VRB-12s (ligand, human, UniProt P15692-4 27-135, looked up) APMAEGGGQNHHEVVKFEDVYRRSYCHPIETLVDIFQEYPDEIEYIFKPSCVPLMRCGGCCNSEMRECVPTEESNITMQIMRIKPHQGQHIGEMSFLQHNKCECRPKKD
0.4 nM/0.4

Tell me Relative Binding Affinity, KDR Receptor: ratio to native VEGF (8–109) reported for LK-VRB-6s: VEGF (1–109) variant with D63S/G65A/L66T (protein) APMAEGGGQNHHEVVKFMDVYQRSYCHPIETLVDIFQEYPDEIEYIFKPSCVPLMRCGGCCNSEATECVPTEESNITMQIMRIKPHQGQHIGEMSFLQHNKCECRPKKD
0.5 nM/0.5

Tell me Relative Binding Affinity, KDR Receptor: ratio to native VEGF (8–109) reported for LK-VRB-11s (ligand, human, UniProt P15692-4 27-135, looked up) APMAEGGGQNHHEVVKFEDVLQRSYCHPIETLVDIFQEYPDEIEYIFKPSCVPLMRCGGCCNSEMRECVPTEESNITMQIMRIKPHQGQHIGEMSFLQHNKCECRPKKD
2 nM/2

Tell me Relative Binding Affinity, KDR Receptor: ratio to native VEGF (8–109) reported for LK-VRB-3s: VEGF (1–109) variant with F17I/M18E/Y21F/Q22K/Y25S (protein) APMAEGGGQNHHEVVKIEDVFKRSSCHPIETLVDIFQEYPDEIEYIFKPSCVPLMRCGGCCNDEGLECVPTEESNITMQIMRIKPHQGQHIGEMSFLQHNKCECRPKKD
1 nM/1

Tell me Relative Binding Affinity, KDR Receptor: ratio to native VEGF (8–109) reported for LK-VRB-19s (ligand, human, UniProt P15692-4 27-135, looked up, one of the two is probably misprinted) APMAEGGGQNHHEVVKFEDVYRRSSCHPIETLVDIFQEYPDEIEYIFKPSCVPLMRCGGCCNSEMRECVPTEESNITMQIMRIKPHQGQHIGEMSFLQHNKCECRPKKD
7 nM/7

Tell me Relative Binding Affinity, KDR Receptor: ratio to native VEGF (8–109) reported for LK-VRB-7s* (ligand, human, UniProt P15692-4 27-135, looked up) APMAEGGGQNHHEVVKFEDVYQRSYCHPIETLVDIFQEYPDEIEYIFKPSCVPLMRCGGCCNSEMRECVPTEESNITMQIMRIKPHQGQHIGEMSFLQHNKCECRPKKD
1 nM/1

Tell me Relative Binding Affinity, KDR Receptor: ratio to native VEGF (8–109) reported for LK-VRB-8s* (ligand) APMAEGGGQNHHEVVKFMDVLQRSYCHPIETLVDIFQEYPDEIEYIFKPSCVPLMRCGGCCNSEMRECVPTEESNITMQIMRIKPHQGQHIGEMSFLQHNKCECRPKKD
0.5 nM/0.5

Tell me Relative Binding Affinity, KDR Receptor: ratio to native VEGF (8–109) reported for LK-VRB-26s (ligand, human, UniProt P15692-4 27-135, looked up) APMAEGGGQNHHEVVKFEDVLRRSSCHPIETLVDIFQEYPDEIEYIFKPSCVPLMRCGGCCNDEMRECVPTEESNITMQIMRIKPHQGQHIGEMSFLQHNKCECRPKKD
23 nM/23
